EXPERIMENT_NOTES: NCI Yeast Anticancer Drug Screen. Data for the sgs1 mgt1 strain (AID 161);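 note: 0% = growth of cultures given vehicle only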
RUN_PARAMETERS: S. cerevisiae sgs1 mgt1 strain, at 50.0 µM, stronger effect = higher value
This is part of a sample that, as a whole, favours compounds with a hit. Of some 79,000 tested, about 15% had one in any assay.
The molecules listed here are annotated with their growth inhibition.

>  <MOLECULE>
C[Si](C)(CNCCN)O[Si](C)(C)CNCCN

>  <growth inhibition / %>
-3.3

$$$$
>  <MOLECULE>
COc1ccc(NC(C)c2ccncc2)cc1 (configuration not stated)

>  <growth inhibition / %>
-29

$$$$
>  <MOLECULE>
FC(F)(F)c1nn2c(c(-c3ccccc3)c(-c3ccccc3)c3ccccc32)c1C(F)(F)F

>  <growth inhibition / %>
28.9

$$$$
>  <MOLECULE>
CC(=O)Nc1ccc(C)cc1[N+](=O)[O-]

>  <growth inhibition / %>
-29.2

$$$$
>  <MOLECULE>
O/N=C\c1cccc[n+]1Cc1ccc2ccccc2c1Br

>  <growth inhibition / %>
-7.55

$$$$
>  <MOLECULE>
CC[O-].CC[O-].O=C1C=C([O-])C(=O)c2ccccc21.O=C1C=C([O-])C(=O)c2ccccc21.[Ti+4]

>  <growth inhibition / %>
15.4

$$$$
>  <MOLECULE>
Cc1cc(=O)c(O)c(C)o1

>  <growth inhibition / %>
-3.4

$$$$
>  <MOLECULE>
C=CCOC(=O)C1CC=CCC1C(=O)OCC=C (configuration not stated)

>  <growth inhibition / %>
-17.9

$$$$
>  <MOLECULE>
CC(=O)N1C(Nc2nccs2)CCN1c1ccccc1 (configuration not stated)

>  <growth inhibition / %>
-21

$$$$
>  <MOLECULE>
O=C(O)CC(Sc1ccccc1)c1ccccc1 (configuration not stated)

>  <growth inhibition / %>
-2.8

$$$$
>  <MOLECULE>
C=CCOC(=O)C1CC(C)=CC(C)C1C (configuration not stated)

>  <growth inhibition / %>
-13.7

$$$$
>  <MOLECULE>
Cc1ccccc1C(=O)c1cc(O)ccc1O

>  <growth inhibition / %>
-1.25

$$$$
